Ref: patent US20160264649A1

measurement target: HIV-1 Env of isolate MGRM-F1-013 (subtype F) (HIV-1)
test summary: cell-based or functional assay

binder | IC50 (neutralization)
PGT-137 (antibody, V domains shown) VH: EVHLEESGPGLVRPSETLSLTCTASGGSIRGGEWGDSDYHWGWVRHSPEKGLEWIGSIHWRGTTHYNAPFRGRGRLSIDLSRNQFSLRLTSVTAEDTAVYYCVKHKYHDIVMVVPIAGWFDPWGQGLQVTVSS VL: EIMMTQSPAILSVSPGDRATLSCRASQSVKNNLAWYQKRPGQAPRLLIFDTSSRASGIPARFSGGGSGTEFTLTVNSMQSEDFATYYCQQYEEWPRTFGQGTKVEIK | > 50 µg/mL
PGT-136 (antibody, V domains shown) VH: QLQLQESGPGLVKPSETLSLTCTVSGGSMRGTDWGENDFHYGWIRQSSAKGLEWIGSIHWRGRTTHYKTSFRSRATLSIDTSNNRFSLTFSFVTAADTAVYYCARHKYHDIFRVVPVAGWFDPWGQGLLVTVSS VL: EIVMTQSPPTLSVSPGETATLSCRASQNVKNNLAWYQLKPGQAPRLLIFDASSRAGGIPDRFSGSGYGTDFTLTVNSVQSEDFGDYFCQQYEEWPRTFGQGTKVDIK | > 50 µg/mL
PGT-126 (antibody, V domains shown) VH: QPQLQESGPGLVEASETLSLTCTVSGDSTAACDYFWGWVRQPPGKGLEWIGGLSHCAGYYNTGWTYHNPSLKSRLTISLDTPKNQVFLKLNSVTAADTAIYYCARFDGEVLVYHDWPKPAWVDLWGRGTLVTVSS VL: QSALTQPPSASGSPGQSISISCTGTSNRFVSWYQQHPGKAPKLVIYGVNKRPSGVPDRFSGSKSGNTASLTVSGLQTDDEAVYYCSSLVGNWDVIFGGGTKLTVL | > 50 µg/mL
PGT-125 (antibody, V domains shown) VH: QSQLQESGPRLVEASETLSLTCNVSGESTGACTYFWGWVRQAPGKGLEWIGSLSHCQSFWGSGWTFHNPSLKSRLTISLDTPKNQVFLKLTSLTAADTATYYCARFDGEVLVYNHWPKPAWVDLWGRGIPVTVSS VL: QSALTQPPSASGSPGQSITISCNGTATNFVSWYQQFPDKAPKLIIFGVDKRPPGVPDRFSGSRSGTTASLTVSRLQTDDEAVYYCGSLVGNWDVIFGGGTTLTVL | > 50 µg/mL
PGT-135 (antibody, V domains shown) VH: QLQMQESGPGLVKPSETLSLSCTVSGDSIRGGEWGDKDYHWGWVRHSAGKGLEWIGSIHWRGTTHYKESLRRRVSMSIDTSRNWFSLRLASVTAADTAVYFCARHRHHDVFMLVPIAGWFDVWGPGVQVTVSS VL: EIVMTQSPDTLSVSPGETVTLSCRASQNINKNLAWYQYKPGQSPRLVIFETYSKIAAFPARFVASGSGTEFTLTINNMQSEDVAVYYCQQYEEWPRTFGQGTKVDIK | 21.1 µg/mL
